Entry source: the supplement of paper PMC10567573

Collected protein stability index values appear next to each entry.
B1: GLTSCR2 (parent)
chain: FQRRNMIEPRERAKFKRKYKVKLV

# Variants of: B1
# experimental details: protein stability index of a GFP-peptide fusion (GPS, HEK-293T) (PSI 1-6); higher = more stable;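 further: lentivirally expressed fusions sorted by FACS into six bins by GFP to DsRed ratio, PSI derived from sequencing read proportions per bin multiplied by bin number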
# condition: c terminus: a fixed tail appended
quantity name: protein stability index

> print(dat)
    mutation.id            quantity.name  result
 1         K20F  protein stability index    2.52
 2         A13I  protein stability index    2.13
 3         R10A  protein stability index    2.56
 4          I7D  protein stability index    3.27
 5          M6V  protein stability index    2.14
 6         R12I  protein stability index    3.04
 7         K22Y  protein stability index    2.08
 8          P9H  protein stability index    2.47
 9          M6Q  protein stability index    2.74
10         R12L  protein stability index    1.79
11         R17S  protein stability index    2.77
12         E11C  protein stability index    2.36
13         K20I  protein stability index    2.07
14         K14M  protein stability index    1.97
15          E8C  protein stability index    3.15
16         K18N  protein stability index     2.4
17          E8P  protein stability index    2.42
18          R4P  protein stability index    1.73
19         E11S  protein stability index     2.2
20         V21Y  protein stability index    2.61
21         V24Q  protein stability index    2.62
22          R3S  protein stability index    1.65
23         R12Q  protein stability index    2.43
24          P9R  protein stability index     2.5
25         L23P  protein stability index    2.12
26         V21D  protein stability index    3.31
27         K22R  protein stability index    2.38
28         F15V  protein stability index    2.81
29         L23E  protein stability index    2.56
30          M6A  protein stability index    2.56
31          M6E  protein stability index    3.08
32         K18H  protein stability index    2.29
33         K14R  protein stability index    2.02
34         Y19H  protein stability index    2.93
35         V24R  protein stability index    2.71
36          M6Y  protein stability index    2.48
37         F15E  protein stability index    2.97
38          R3F  protein stability index    1.75
39          I7C  protein stability index    2.78
40         R12D  protein stability index    2.31
41         R12Y  protein stability index    1.79
42         K20C  protein stability index    1.93
43          R4K  protein stability index    1.95
44         Y19R  protein stability index     3.5
45          F1I  protein stability index    3.03
46          R3C  protein stability index    2.38
47         A13W  protein stability index    1.61
48         K18S  protein stability index    2.63
49         F15G  protein stability index    2.96
50          M6L  protein stability index    1.63
51         R17T  protein stability index    2.56
52         A13F  protein stability index    1.64
53         R17V  protein stability index    1.96
54          R4M  protein stability index    1.86
55          R4G  protein stability index     1.9
56          R3V  protein stability index    2.04
57         A13E  protein stability index    2.56
58         V24N  protein stability index    2.49
59         R17L  protein stability index    2.45
60         V21P  protein stability index    2.33
61          P9Q  protein stability index    2.38
62         A13Q  protein stability index    2.35
63         K16N  protein stability index    2.48
64         R17E  protein stability index    2.24
65          N5H  protein stability index    1.88
66          R3M  protein stability index    2.68
67         Y19P  protein stability index    2.74
68          R3G  protein stability index    2.17
69          P9G  protein stability index    1.71
70          I7K  protein stability index     2.1
71         A13M  protein stability index    2.08
72          R4Y  protein stability index    2.42
73          R4A  protein stability index    2.21
74         K22I  protein stability index    1.27
75          M6D  protein stability index    2.31
76          E8Y  protein stability index    2.23
77         R17D  protein stability index    2.27
78          M6K  protein stability index    2.52
79         K18I  protein stability index    2.45
80          M6N  protein stability index    2.27
81         L23V  protein stability index    2.13
82          E8Q  protein stability index    1.64
83         V24D  protein stability index    3.12
84          N5S  protein stability index    2.02
85         V24A  protein stability index    2.96
86         R17G  protein stability index    1.99
87          R3Y  protein stability index     1.6
88         K18Q  protein stability index    2.51
89         F15H  protein stability index    3.14
90          R3N  protein stability index    2.66
91          R4H  protein stability index    2.13
